# system under test: T1, cyIL1RAP-His (Lake Pharma) (cynomolgus monkey, UniProt A0A2K5X5J5 21-367)
# T1 construct: Bought protein (Lake Pharma, lot 16205819371); also called cynomolgus IL1RAP; monkey IL1RAP; not shown: His tag
# T1 sequence: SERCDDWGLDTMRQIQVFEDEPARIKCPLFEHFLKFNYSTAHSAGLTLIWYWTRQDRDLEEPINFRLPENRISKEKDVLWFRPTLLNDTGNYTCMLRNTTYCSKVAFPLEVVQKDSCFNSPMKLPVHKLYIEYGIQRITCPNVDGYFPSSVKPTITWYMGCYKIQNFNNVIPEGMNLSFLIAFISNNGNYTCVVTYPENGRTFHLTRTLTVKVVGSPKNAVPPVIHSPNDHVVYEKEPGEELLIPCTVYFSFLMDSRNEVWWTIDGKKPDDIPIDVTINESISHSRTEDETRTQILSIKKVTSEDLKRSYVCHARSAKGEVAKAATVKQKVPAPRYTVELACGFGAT
# method notes: Octet BLI; mAb captured on anti-mouse IgG Fc sensor; cyIL1RAP-His analyte

| binder | unit tag | koff |
| --- | --- | --- |
| STLX2007 (antibody, V domains shown, Purified from hybridoma of immunized Alivamab mice; intact IgG; captured on anti-mouse IgG Fc sensors in Octet; kappa light chain; also called 74804_07K10A) VH: QVQLLQSGAEVKKPGSSVKVSCRASGGTFSIYAIDWVRQAPGQGLEWMGGIIPISGTENSAQNFQDRITITADKSTNTAYMELSSLRSEDTAVYYCARNGATSDAFDIWGQGTMVTVSS VL: EIVLTQSPGTLSLSPGERATLSCRASLSVSSNYLAWFQQRPGQAPRLLIYGVSRRATGIPDRFSGSGSGTDFTLTISRLEPEDFAVYYCQQYGSSPLTFGGGTKVEIK | s⁻¹ | 0.000283 |
| STLX2051 (antibody, V domains shown, Purified from hybridoma of immunized Alivamab mice; intact IgG; captured on anti-mouse IgG Fc sensors in Octet; kappa light chain; also called 74804_51C10A) VH: QVQLLQSGAEVKKPGSSVKVSCKASGGTFNIYAIDWVRQAPGQGLEWMGGIIPIFGTANSAQKFQGRVTITADKSTNTAYMELSSLRSEDTAVYYCARNGATSDAFDIWGQGTMVTVSS VL: EIVLTQSPGTLSLSPGERATLSCRASQSVSSNYLAWFQQRPGQAPRLLIYGVSRRATGIPDRFSGSGSGTDFTLTISRLEPEDFAVYYCQQYGSSPLTFGGGTKVEIK | s⁻¹ | 0.000459 |
| STLX2027 (antibody, V domains shown, Purified from hybridoma of immunized Alivamab mice; intact IgG; captured on anti-mouse IgG Fc sensors in Octet; lambda light chain; also called 74804_27I24A) VH: EVQLVESGGGLVKPGGSLRLSCAASGFTFITYSMNWVRQAPGKGLEWVSSISSISSYIYYADSVKGRFTISRDNAKNSLYLQMDSLRAEDSAVYYCAREGIVGPTGYFDSWGQGTLVTVSS VL: QSVLTQPPSVSAAPGQKVTISCSGSSSNIGNHYVSWYQQLPGTAPKLLIYDNNKRPSGIPDRFSGSKSGTSATLGITGLQTGDEADYYCGTWDSRLSAYWVFGGGTKLTVL | s⁻¹ | 0.00107 |
| STLX2012 (antibody, V domains shown, Purified from hybridoma of immunized Alivamab mice; intact IgG; captured on anti-mouse IgG Fc sensors in Octet; kappa light chain; also called 74804_12A21B) VH: QVQLLQSGAEVKKPGSSVKVSCKASGGTFSIYAIDWVRQAPGQGLEWMGGIIPIFGTANSAQKFQGRVTITADKSTSTAYMELSSLRSEDTAVYYCARNGATSDAFDMWGQGTMVTVSS VL: EIVLTQSPGTLSLSPGERATLSCRASLSVSSNYLAWFQQRPGQAPRLLIHGVSRRATGIPDRFSGSGSGTDFTLTISRLEPEDFAVYYCQQYGSSPLTFGGGTKVEIK | s⁻¹ | 0.000441 |
